Below, each of the molecules is paired with its reported MIC value.
- Test system: K. pneumoniae ST512/KPC-31 (KPC-3 D179Y) parental clinical isolate
- assay-procedure: MIC, broth microdilution
- Format: cell-based
- stated-conditions: Klebsiella pneumoniae

molecule	study-system	MIC
NC[C@H]1O[C@H](O[C@H]2[C@H](O)[C@@H](O[C@H]3O[C@H](CO)[C@@H](O)[C@H](N)[C@H]3O)[C@H](N)C[C@@H]2N)[C@H](N)C[C@@H]1O [TOB, tobramycin]	K. pneumoniae ST512/KPC-31 (KPC-3 D179Y) parental clinical isolate	> 8 µg/mL
C[C@@H](O)[C@H]1C(=O)N2C(C(=O)O)=C(S[C@@H]3CN[C@H](C(=O)N(C)C)C3)[C@H](C)[C@H]12 [MEM, meropenem]	K. pneumoniae ST512/KPC-31 (KPC-3 D179Y) parental clinical isolate	4 µg/mL
CC(C)(O/N=C(\C(=O)N[C@@H]1C(=O)N2C(C(=O)[O-])=C(C[n+]3ccccc3)CS[C@H]12)c1csc(N)n1)C(=O)O [CAZ, ceftazidime]	K. pneumoniae ST512/KPC-31 (KPC-3 D179Y) parental clinical isolate	> 256 µg/mL
C[C@@H](O)[C@H]1C(=O)N2C(C(=O)O)=C(SCCN=CN)C[C@H]12 [IMI, imipenem]	K. pneumoniae ST512/KPC-31 (KPC-3 D179Y) parental clinical isolate	0.125 µg/mL
NCC[C@H](O)C(=O)N[C@@H]1C[C@H](N)[C@@H](O[C@H]2O[C@H](CN)[C@@H](O)[C@H](O)[C@H]2O)[C@H](O)[C@H]1O[C@H]1O[C@H](CO)[C@@H](O)[C@H](N)[C@H]1O [AMI, amikacin]	K. pneumoniae ST512/KPC-31 (KPC-3 D179Y) parental clinical isolate	> 32 µg/mL

With those in mind, consider the next molecule.
Challenge: GET /values?readout=MIC&item= C[C@H]1COc2c(N3CCN(C)CC3)c(F)cc3c(=O)c(C(=O)O)cn1c23 [LEV, levofloxacin]
Response given: > 8 µg/mL

Recorded values, source paper PMC11619344.
